The compounds below have reported pIC50 for AKT1-PH domain (Homo sapiens).
Note: pIC50 values are expressed as the negative base-10 logarithm of concentration in M.

>>> reported("OCc1cn(Cc2ccccc2)nn1")
6.50

The reported value for O=[N+]([O-])c1ccc(Cn2cc(CO)nn2)cc1 in terms of pIC50 is 6.76

----------
Target: PLCδ1-PH domain (Rattus norvegicus, UniProt P10688)
Sequence (P10688 1-131): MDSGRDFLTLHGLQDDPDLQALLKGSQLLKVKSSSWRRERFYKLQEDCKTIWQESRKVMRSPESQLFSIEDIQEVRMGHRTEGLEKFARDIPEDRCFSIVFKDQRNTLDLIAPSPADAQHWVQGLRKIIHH
ENDPOINT: pKi
Recall that pKi is obtained by taking minus log10 of the concentration measured in molar.

Lab book: pKi of O=[N+]([O-])c1ccc(Cn2cc(CO)nn2)cc1 noted as 4.22

Every entry's value here was drawn from paper PMC5668642.
